These entries and their values trace back to ChEMBL document CHEMBL4257516.

Test: Hemolytic activity in horse erythrocytes at 512 uM after 1 hr relative to control
Assay type: ADME, cell-based, Equus caballus, Erythrocyte
Conditions: read-out: Activity
Readout Type: hemolysis at 1 h, 512 µM (%)
Answers are plain numbers, in %.

IN: Quick one: hemolysis at 1 h, 512 µM of H-KRWWKWIRW-NH2 ?
OUT: 14.3

---

Assay: Cytotoxicity against HEK293 cells assessed as cell viability at 512 uM after 24 hrs by Alamar blue assay relative to control
Format: cell-based
Conditions: human, read-out: Activity
Readout Type: viability at 24 h, 512 µM (%)
Give bare numbers, in %.

IN: Quick one: viability at 24 h, 512 µM of H-KRWWKWIRW-NH2 ?
OUT: 0
